# targetUnderTest: T1, N1 binding to cell surface expressed hJ1 (Homo sapiens, UniProt P78504)
# T1 construct: cell expressed full length human J1 (hJ1; HEK293 transfectants); expressed in transfected cells; host or cells: HEK293
# T1 sequence (P78504 34-1218): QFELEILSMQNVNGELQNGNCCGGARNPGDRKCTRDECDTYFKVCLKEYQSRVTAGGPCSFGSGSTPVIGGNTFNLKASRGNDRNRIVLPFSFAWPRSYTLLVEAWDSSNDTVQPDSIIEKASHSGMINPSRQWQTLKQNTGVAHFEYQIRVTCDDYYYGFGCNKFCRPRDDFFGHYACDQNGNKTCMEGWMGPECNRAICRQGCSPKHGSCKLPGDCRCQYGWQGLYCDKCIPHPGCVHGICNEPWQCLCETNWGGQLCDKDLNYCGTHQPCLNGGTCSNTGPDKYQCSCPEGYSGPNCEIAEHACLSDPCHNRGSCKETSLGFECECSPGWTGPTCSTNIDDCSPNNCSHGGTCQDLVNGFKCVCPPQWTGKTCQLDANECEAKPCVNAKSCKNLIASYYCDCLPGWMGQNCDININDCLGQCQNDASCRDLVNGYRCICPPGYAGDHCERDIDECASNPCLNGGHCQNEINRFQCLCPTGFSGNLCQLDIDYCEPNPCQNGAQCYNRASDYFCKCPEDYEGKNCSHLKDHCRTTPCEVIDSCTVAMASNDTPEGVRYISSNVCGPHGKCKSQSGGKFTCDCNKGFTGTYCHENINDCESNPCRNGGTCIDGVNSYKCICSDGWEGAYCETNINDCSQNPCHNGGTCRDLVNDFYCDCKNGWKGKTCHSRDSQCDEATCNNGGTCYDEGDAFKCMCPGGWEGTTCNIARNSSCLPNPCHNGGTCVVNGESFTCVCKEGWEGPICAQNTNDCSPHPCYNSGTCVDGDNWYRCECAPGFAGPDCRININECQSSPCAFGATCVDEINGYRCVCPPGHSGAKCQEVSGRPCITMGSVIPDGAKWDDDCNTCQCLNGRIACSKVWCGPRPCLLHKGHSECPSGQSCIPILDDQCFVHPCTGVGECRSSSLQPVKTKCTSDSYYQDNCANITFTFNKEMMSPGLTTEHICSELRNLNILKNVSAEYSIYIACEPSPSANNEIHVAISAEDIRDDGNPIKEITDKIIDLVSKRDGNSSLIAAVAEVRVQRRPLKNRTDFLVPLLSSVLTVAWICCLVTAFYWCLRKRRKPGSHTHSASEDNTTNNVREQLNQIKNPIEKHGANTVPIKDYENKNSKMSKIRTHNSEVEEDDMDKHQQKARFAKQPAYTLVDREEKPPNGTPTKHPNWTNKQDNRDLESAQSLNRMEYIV
# experimentalDetails: Notch binding blocking assay (FACS): N1 EGF11-13 beads staining human J1-expressing cells
# setupConditions: final antibody concentration 0.6 μg/ml
measurementType: Blocking of Notch1 binding to cell surface Jagged 1

# molecule, val
measured = [
    ("J1-183D variant 16: humanised/de-immunised J1-183D: J1-183D_VL_4 + J1-183D_VH_4 (antibody, V domains shown) VH: QVQLVQSGAEVKKPGASVKVSCKASGYTFTDYAIHWVRQAPGQGLEWMGIINTYYGDSKYAQKFQGRVTMTVDTSTSTAYMELSSLRSEDTAVYYCARGYDGFAYWGQGTLVTVSSASTKGP VL: DIQMTQSPSSLSASVGDRVTITCRTSENIYSYLTWYQQKPGKAPKLLIYHAKILDSGVPSRFSGSGSGTDFTLTISSLQPEDFATYYCQHHYDIPWTFGGGTKLEIKRT", "+ (Complete blocking)"),
    ("J1-183D variant 13: humanised/de-immunised J1-183D: J1-183D_VL_4 + J1-183D_VH_1 (antibody, V domains shown) VH: QVQLVQSGAELKKPGASVKVSCKVSGYAFTDYAIHWIRQAPGQGLEWMGIINTYYGDSKYNQKFKDRVTMTVDKSTSTAYMELSSLRSEDTAVYYCARGYDGFAYWGQGTLVTVSSASTKGP VL: DIQMTQSPSSLSASVGDRVTITCRTSENIYSYLTWYQQKPGKAPKLLIYHAKILDSGVPSRFSGSGSGTDFTLTISSLQPEDFATYYCQHHYDIPWTFGGGTKLEIKRT", "+ (Complete blocking)"),
]
